- Tested on: M14 melanoma
- assay-text: NCI-60 one-dose screen, 48 h
- condition-set: 10 µM unless noted
About 83,000 compounds went through this panel and 20% of them were active in at least one assay; those are over-represented in the sample as a whole. Calls of active or inactive are those of the source. Rule for the calls: active = growth percent below 10; inactive = the rest.
Output constraint: value belongs to 1 (active), -1 (inactive)

Consider the worked cases shown below.
[[record]]
compound = "CC1=C(NCCN2CCCC2)C(=O)c2c(OCc3cccc(Cl)c3)cccc2C1=O"
assayed_system = "M14 melanoma"
class_label = 1

[[record]]
compound = "Nc1cccc(NC(=O)C(=O)Nc2cccc(N)c2)c1"
assayed_system = "M14 melanoma"
class_label = -1

[[record]]
compound = "CCOC(=O)N1CCN(c2nc(Nc3cc(C)[nH]n3)c3ccccc3n2)CC1"
assayed_system = "M14 melanoma"
class_label = -1


Ask | Hey, what did the test say about COc1cc(C2CC(=O)c3c(C)nn(-c4nc5ccccc5[nH]4)c3C2)cc(OC)c1OC (configuration not stated) ?
Reply | -1

Ask | Hey, what did the test say about CSc1[nH]c2ncnc(N)c2c1C#N ?
Reply | -1

Ask | Hey, what did the test say about COc1cccc(-c2cn3c(ccc4ccccc43)n2)c1 ?
Reply | -1

Ask | Hey, what did the test say about O=C1Nc2ccccc2C12CC(c1ccc(Cl)cc1)=NN2 (configuration not stated) ?
Reply | -1

Ask | Hey, what did the test say about CC1=C(C)C(=O)OC([C@](C)(O)[C@]2(O)CC[C@@]3(O)[C@@H]4C[C@H]5O[C@]56CC=CC(=O)[C@]6(C)[C@H]4CC[C@]23COC(=O)c2ccc(C)o2)C1 (some centres not stated) ?
Reply | 1
